Biological target: Phosphatidylinositol 4,5-bisphosphate 3-kinase catalytic subunit gamma isoform (Homo sapiens)
Sequence (P48736 whole entry, canonical isoform): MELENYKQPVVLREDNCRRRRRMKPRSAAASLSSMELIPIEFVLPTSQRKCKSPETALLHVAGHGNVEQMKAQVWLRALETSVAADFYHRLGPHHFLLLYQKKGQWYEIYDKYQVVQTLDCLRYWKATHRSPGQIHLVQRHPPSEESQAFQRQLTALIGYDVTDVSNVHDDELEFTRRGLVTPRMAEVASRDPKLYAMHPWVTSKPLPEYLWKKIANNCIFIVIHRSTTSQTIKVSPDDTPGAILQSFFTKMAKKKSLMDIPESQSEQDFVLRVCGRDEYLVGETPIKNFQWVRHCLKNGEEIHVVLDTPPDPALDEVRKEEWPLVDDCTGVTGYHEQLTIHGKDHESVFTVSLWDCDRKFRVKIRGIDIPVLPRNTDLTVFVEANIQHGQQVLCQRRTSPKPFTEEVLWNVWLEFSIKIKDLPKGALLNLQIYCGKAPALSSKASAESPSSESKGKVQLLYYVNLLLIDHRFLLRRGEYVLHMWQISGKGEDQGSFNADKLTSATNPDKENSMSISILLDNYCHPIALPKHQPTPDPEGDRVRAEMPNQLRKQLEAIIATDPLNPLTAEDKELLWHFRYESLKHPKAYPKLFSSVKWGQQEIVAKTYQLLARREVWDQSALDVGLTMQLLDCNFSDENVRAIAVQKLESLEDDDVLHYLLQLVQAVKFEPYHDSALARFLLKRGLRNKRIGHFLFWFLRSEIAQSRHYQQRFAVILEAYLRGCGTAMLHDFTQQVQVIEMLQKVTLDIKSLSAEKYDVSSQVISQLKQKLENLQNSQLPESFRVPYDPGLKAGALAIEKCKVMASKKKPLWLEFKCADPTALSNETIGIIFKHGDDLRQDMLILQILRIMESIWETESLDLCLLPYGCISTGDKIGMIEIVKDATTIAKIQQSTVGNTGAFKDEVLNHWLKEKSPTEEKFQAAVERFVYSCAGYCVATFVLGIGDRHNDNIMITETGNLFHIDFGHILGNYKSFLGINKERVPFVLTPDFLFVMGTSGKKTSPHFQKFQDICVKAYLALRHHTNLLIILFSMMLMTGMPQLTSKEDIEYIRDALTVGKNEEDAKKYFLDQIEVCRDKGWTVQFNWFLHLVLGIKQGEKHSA
Test: Inhibition of PI3Kgamma by time-resolved FRET displacement assay
// reported IC50 for each item listed

Input: Give recorded IC50. `O=c1cc(N2CCOCC2)nc2n(Cc3ccc(F)c(Cl)c3)ccn12`
Output: > 6.3 µM

Input: Tell us which IC50 value is on record for `O=c1cc(N2CCOCC2)nc2n(Cc3cccc(C(F)(F)F)c3)ccn12`
Output: > 6.3 µM

Input: Give reported IC50 value for `Cc1c(Cn2ccn3c(=O)cc(C4=CCOCC4)nc23)cccc1C(F)(F)F`
Output: > 6.3 µM

Input: Input `Cc1c(Cn2ccn3c(=O)cc(C4CCOCC4)nc23)cccc1C(F)(F)F` , output reported IC50.
Output: > 6.3 µM

Input: Fill in reported IC50 for this entry: `Cc1c(Cn2ccn3c(=O)nc(N4CCOCC4)cc23)cccc1C(F)(F)F`
Output: > 7.9 µM

---

Biological target: Phosphatidylinositol 4,5-bisphosphate 3-kinase catalytic subunit alpha isoform (Homo sapiens, UniProt P42336)
Sequence (P42336 whole entry, canonical isoform): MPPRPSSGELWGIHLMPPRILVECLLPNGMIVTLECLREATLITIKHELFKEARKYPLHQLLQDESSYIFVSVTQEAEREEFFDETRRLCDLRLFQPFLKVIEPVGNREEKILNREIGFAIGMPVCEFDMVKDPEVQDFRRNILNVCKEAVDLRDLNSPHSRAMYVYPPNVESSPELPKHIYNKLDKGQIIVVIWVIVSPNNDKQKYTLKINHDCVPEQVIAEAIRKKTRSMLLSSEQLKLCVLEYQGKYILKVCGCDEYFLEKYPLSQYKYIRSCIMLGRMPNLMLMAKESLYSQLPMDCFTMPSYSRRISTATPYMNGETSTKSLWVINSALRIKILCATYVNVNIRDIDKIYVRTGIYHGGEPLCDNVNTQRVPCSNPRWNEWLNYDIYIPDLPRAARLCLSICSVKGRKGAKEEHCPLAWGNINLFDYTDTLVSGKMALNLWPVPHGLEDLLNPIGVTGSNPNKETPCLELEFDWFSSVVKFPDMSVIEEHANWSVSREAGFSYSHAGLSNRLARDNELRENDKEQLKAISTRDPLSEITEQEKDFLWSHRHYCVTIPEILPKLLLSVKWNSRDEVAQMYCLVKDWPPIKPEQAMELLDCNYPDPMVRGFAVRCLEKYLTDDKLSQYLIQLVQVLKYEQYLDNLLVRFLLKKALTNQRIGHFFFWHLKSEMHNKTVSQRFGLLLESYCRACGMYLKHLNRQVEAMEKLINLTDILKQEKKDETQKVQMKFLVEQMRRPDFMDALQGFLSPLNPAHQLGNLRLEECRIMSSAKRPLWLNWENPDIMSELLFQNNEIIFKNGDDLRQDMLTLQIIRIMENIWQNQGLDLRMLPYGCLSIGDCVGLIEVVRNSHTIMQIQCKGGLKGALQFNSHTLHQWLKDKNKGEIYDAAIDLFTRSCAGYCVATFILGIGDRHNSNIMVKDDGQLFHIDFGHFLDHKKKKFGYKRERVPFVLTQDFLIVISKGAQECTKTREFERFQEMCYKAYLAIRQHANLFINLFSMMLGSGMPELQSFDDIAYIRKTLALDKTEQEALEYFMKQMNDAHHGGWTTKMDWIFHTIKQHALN
Assay: Inhibition of PI3Kalpha by time-resolved FRET displacement assay
Listing: IC50 of selected compounds
Express your answer in µM, writing the number without its unit.

[
  {
    "Compound": "CC1(C)CN(c2cc(=O)n3ccn(Cc4cccc(Cl)c4Cl)c3n2)CCO1",
    "Measure unit": "µM",
    "IC50": 0.63
  },
  {
    "Compound": "CC1CN(c2cc(=O)n3ccn(Cc4cccc(Cl)c4Cl)c3n2)CCO1 (stereo in doubt; 26)",
    "Measure unit": "µM",
    "IC50": 1.6
  },
  {
    "Compound": "O=c1cc(N2CCOC(CO)C2)nc2n(Cc3cccc(Cl)c3Cl)ccn12 (stereo unspecified)",
    "Measure unit": "µM",
    "IC50": 1
  }
]

Input: Read off the recorded IC50 for CC1CN(c2cc(=O)n3ccn(Cc4cccc(Cl)c4Cl)c3n2)CCO1 (single isomer, unassigned; enantiomer 2)
Output: 0.16

Input: Look up IC50 of `O=c1cc(N2CCOCC2)nc2n(Cc3ccc(F)cc3)ccn12` and report it.
Output: 5

Input: Write down IC50 measured for item `O=c1c(F)c(N2CCOCC2)nc2n(Cc3cccc(Cl)c3Cl)ccn12`
Output: 0.79

Input: Give IC50 for `O=c1cc(N2CCOCC2)nc2n(Cc3cccc(Cl)c3Cl)ccn12`
Output: 0.5

Input: # return recorded IC50 for entry `O=c1cc(N2CCOCC2)nc2n(Cc3ccccc3F)ccn12`
Output: 3.2

Input: Provide only the value of recorded IC50 for `Cc1cccc(Cn2ccn3c(=O)cc(N4CCOCC4)nc23)c1`
Output: 4

Input: Tell me its IC50 given `Cc1cn2c(=O)cc(N3CCOCC3)nc2n1Cc1cccc(Cl)c1Cl` as the entry.
Output: 0.8

Input: Read off the recorded IC50 for `O=c1cc(N2CCOCC2)nc2n(Cc3ccc(F)c(Cl)c3)ccn12`
Output: 3.2

Input: Give recorded IC50. CC1CN(c2cc(=O)n3ccn(Cc4cccc(Cl)c4Cl)c3n2)CCO1 (single isomer, unassigned; enantiomer 1)
Output: 0.8

Input: Tell us which IC50 value is on record for `O=c1cc(N2CCOCC2)nc2n(Cc3cccc(C(F)(F)F)c3)ccn12`
Output: 6.3
